Molecular target: T1, CD11b A-domain CD11bA-D140A/F275S/F302G, construct BZ348010 (human, UniProt P11215 148-337)
T1 chain: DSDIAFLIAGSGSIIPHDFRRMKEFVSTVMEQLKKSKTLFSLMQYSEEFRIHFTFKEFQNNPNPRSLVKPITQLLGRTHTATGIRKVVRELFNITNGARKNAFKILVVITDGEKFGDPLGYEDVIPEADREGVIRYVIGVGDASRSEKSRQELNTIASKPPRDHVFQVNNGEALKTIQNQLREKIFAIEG
Assay: counterscreen phage ELISA on coated antigen
MEASURED PARAMETER: Absorbance at 450 nM

Inquiry: Output measured Absorbance at 450 nM for this item: Clone 5 149-014-5 (VL-Linker-VH) (scFv, From the naive human scFv phage display library) scFv: SSELTQDPAVSVALGQTVRITCQGDSLRSYYASWYQQKPGQAPVLVIYGKNNRPSGIPDRFSGSTSGNFASLTITGAQAEDGADYYCHSRDSSGNHLVFGGGTKLTVLGEGKSSGSGSESKASEVQLVQSGAEVKKPGESLKISCKGSGYSFTSYWIGWVRQMPGKGLEWMGIIYPGDSDTRYSPSFQGQVTISADKSISTAYLQWSSLKASDTAMYYCARRARGAFDIWGQGTLVTVSS
Reply text: 1.74

Inquiry: Using the record for Clone 14 149-014-14 (VK-Linker-VH) (scFv, From the naive human scFv phage display library) scFv: DVVMTQSPLSLPATLGQPASISCRSSQSLVYTDGNTYLNWFQQRPGQSPRRLIYKVSNRDSGVPDRFSGSGSGTHFTLKISRVEAEDVGVYYCMQGTHWPPTFGQGTKVEIKEGKSSGSGSESKASEVQLVQSGAEVKKPGASVKVSCKASGGTFSSYAISWVRQAPGQGLEWMGGIIPIFGTANYAQKFQGRVTITADESTSTAYMELSSLRSEDTAVYYCASSGVDYWGQGTLVTVSS , state its measured Absorbance at 450 nM.
Reply text: 0.659

Inquiry: Please look at this binder and report its Absorbance at 450 nM: Clone 13 149-014-13 VH only (other) VH: EVQLLESGGGLVQPGGSLRLSCAASGFTFSSDLMSWVRQAPGKGLEWVSAISGSGGSTYYADSVKGRFTISRDNSKNTLYLQMNSLRAEDTAVYYCAKNEVIFDYWGQGTLVTVSSASTKGLSMFDYWGQGTKVEIK
Reply text: 0.495

Inquiry: Assign Absorbance at 450 nM to the following record: Clone 6 149-014-6 (VL-linker-VH) (scFv, From the naive human scFv phage display library) scFv: QSVLTQPPSASGTPGQRVTISCSGSSSNIGSNYVSWYQQLPGTAPKLLIYDNNKRPSGIPDRFSGSKSGTSATLGITGLQTGDEADYYCGTWDSSLSALYVFGAGTKLTVLGEGKSSGSGSESKASQVQLQESGPGLVKPSETLSLTCSVSGGSTSSYYWSWIRQPPGKGLEWIGYISNSGSTNYNPSLKSRVTMSIDTSNNQFSLKLSSVTAADTAVYYCASHLGATWRWGQGTLVTVSS
Reply text: 1.51
